Exercise: for every item that follows, state its recorded IC50.
Target: HO-1 (rat spleen) (Rattus norvegicus)
Construct: Spleen microsomes were used as a source of HO-1; from tissue; host or cells: spleen microsomal fraction of adult male Sprague-Dawley rats
Sequence (P06762 whole entry): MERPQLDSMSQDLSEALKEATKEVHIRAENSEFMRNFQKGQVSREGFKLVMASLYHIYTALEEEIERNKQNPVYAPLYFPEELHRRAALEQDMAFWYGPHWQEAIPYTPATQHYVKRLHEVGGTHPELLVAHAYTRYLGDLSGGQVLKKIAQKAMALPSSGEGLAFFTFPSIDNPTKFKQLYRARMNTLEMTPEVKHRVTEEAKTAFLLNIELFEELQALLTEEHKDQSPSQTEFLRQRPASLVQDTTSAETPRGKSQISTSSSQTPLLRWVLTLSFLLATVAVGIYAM
Experiment: HO enzymatic activity in rat spleen microsomal fraction (CO formed from methemalbumin, gas chromatography)
Assay type: biochemical
Conditions: rat spleen microsomes; average ± standard deviation of replicate experiments; read-out: IC50 HO-1 (rat spleen)/μM
Counter-ions that a name gives are not always drawn.
Give bare numbers, in µM.

Illustrative cases are given below, each with its answer.
OC(CCc1ccc(Cl)cc1)Cn1ccnc1 (stereo not drawn) [hydrochloride] :: 0.5
O=C(Cn1ccnc1)c1ccc2ccc3cccc4ccc1c2c34 [hydrochloride] :: 14
COc1ccc(SC[C@@H]2CO[C@@](CCc3ccc(Cl)cc3)(Cn3ccnc3)O2)cc1 [hydrochloride] :: 0.7
C[C@H]1CO[C@](CCc2ccc(Cl)cc2)(Cn2ccnc2)O1 [hydrochloride] :: 12
O=C(CCc1ccccc1)Cn1cnc(-c2ccccc2)n1 :: 9
OC(Cn1ccnc1)c1ccc(CCc2ccccc2)cc1 (racemic) :: 0.225

Can you give me IC50 for all of these, one by one?
1. COCC1CO[C@@](CCc2ccc(Cl)cc2)(Cn2ccnc2)O1 (stereo in doubt) [hydrochloride]
2. [N-]=[N+]=NC[C@@H]1CO[C@@](CCc2ccc(Cl)cc2)(Cn2ccnc2)O1
3. C[C@@H]1CO[C@@](CCc2ccccc2)(Cn2ccnc2)O1 [hydrochloride]
4. [O-][S+](CCCn1ccnc1)c1ccccc1 (stereo not drawn) [hydrochloride]
5. Fc1ccc(COC(Cn2ccnc2)c2ccc(-c3ccc(Br)cc3)cc2)cc1 (racemic)
6. c1ccc(OCCCn2ccnc2)cc1 [hydrochloride]
7. O=C(c1ccccc1)C(c1ccccc1)n1ccnc1 (racemic) [hydrochloride]
8. Clc1ccc(CC[C@@]2(Cn3ccnc3)OC[C@@H](Cn3ccnc3)O2)cc1 [dihydrochloride]

Data returned:
1.73
3.6
2
3.7
5
42
24
10

Data request: Request: IC50, test system HO-1 (rat spleen) (Rattus norvegicus), entry Clc1ccc(C2(Cn3ccnc3)OCCO2)cc1Cl
Data returned: 8
